Cited source for all entries: patent US20220267298A1

Target: GRK2 (Homo sapiens, UniProt P25098)
Sequence (P25098 1-689): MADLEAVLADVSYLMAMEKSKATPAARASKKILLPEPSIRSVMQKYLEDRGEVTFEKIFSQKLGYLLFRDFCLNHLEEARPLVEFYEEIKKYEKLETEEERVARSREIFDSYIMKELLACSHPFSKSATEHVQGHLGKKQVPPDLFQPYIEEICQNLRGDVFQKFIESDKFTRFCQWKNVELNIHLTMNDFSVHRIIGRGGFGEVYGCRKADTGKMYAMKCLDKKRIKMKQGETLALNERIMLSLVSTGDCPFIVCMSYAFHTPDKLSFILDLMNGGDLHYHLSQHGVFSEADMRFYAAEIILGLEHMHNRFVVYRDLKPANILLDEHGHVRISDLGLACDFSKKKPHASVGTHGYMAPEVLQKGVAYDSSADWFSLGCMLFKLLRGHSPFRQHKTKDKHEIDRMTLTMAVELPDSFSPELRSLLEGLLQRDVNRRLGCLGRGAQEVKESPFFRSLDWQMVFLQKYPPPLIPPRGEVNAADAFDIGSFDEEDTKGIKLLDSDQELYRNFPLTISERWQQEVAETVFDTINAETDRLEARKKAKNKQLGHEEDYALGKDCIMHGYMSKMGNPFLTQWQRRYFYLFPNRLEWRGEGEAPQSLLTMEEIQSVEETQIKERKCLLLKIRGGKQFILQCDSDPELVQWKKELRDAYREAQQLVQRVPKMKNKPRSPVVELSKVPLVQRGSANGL
Experiment: biochemical
Details: GRK2 IC50 (μM), 10 nM GRK2; 10 uM ATP
Below is a list of entries, each paired with its recorded IC50 value.

SMILES_NOTATION | IC50
O=C(NCc1c(F)cccc1F)c1ccc(Cn2cnc3ccc(-c4cn[nH]c4)cc3c2=O)cc1 | ~20 µM
O=C(NCc1c(F)cccc1F)c1cc(F)cc(Cn2cnc3ccc(-c4cn[nH]c4)cc3c2=O)c1 | < 0.01 µM
COc1cccc(Cn2cnc3ccc(-c4cnc(N)nc4)cc3c2=O)c1 | > 19 µM

Lab note: next molecule to report on.
Request: # lookup: IC50 of O=c1c2cc(-c3c[nH]nc3C(F)(F)F)ccc2ncn1Cc1c(F)cccc1F
Result: > 20 µM
